This listing pairs compounds with measured IC50.
Test system: KRAS patient-derived spheroids with HUVEC/MSC, viability;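 further: spheroids exposed to agents for 7 days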
assay.overview: Anticancer human tumor 323965-272-R-J2-PDC patient-derived pancreatic carcinoma cell line growth inhibition [KRAS2]
measurement.parameters: curve of first compound; second compound 1 µM
Description: Multicellular complex tumor spheroid response to RAS pathway inhibitors in combination with a targeted agents in patient-derived cell lines with oncogenic KRAS variants from multiple cancer types A high-throughput screen of multi-cell type tumor spheroids was designed to identify active combinations of targeted small molecules and KRAS pathway inhibitors. […] Compounds. […] If the clinical Cmax for an agent had not been determined, the highest concentration tested was 10 microM. […]

compound	IC50
CC(C)n1nc(-c2ccc3oc(N)nc3c2)c2c(N)ncnc21 + COc1cc2nc(C)nc(NC(C)c3cc(N)cc(C(F)(F)F)c3)c2cc1OC1CCOC1	0.000736 µM
CC(C)n1nc(-c2ccc3oc(N)nc3c2)c2c(N)ncnc21 + CNCc1ccccc1-c1csc(C(C)Nc2nc(C)nc3cc(OC)c(OC)cc23)c1	0.00272 µM
COc1cc2nccc(Oc3ccc(NC(=O)C4(C(=O)Nc5ccc(F)cc5)CC4)cc3)c2cc1OC + CC1OCC2(CCN(c3cnc(Sc4ccnc(N)c4Cl)c(N)n3)CC2)C1N	< 0.0316 µM
COc1cc2nccc(Oc3ccc(NC(=O)C4(C(=O)Nc5ccc(F)cc5)CC4)cc3)c2cc1OC + COc1cc2nc(C)nc(NC(C)c3cc(N)cc(C(F)(F)F)c3)c2cc1OC1CCOC1	> 10 µM
Cn1nccc1Nc1nccc(-c2cc3c(s2)C(C)(C)N(CCN2CCOCC2)C3=O)n1 + C=CC(=O)N1CCN(c2nc(=O)n(-c3c(C)ccnc3C(C)C)c3nc(-c4c(O)cccc4F)c(F)cc23)C(C)C1	< 0.0316 µM
COc1cc(Nc2ncc3c(n2)-c2ccc(Cl)cc2C(c2c(F)cccc2OC)=NC3)ccc1C(=O)O + CNCc1ccccc1-c1csc(C(C)Nc2nc(C)nc3cc(OC)c(OC)cc23)c1	0.0964 µM
CN(C)C/C=C/C(=O)Nc1cc2c(Nc3ccc(F)c(Cl)c3)ncnc2cc1O[C@H]1CCOC1 + C=CC(=O)N1CCN(c2nc(OCC3CCCN3C)nc3c2CCN(c2cccc4cccc(C)c24)C3)CC1CC#N	0.0023 µM
COc1cc2nccc(Oc3ccc(NC(=O)C4(C(=O)Nc5ccc(F)cc5)CC4)cc3)c2cc1OC + CNCc1ccccc1-c1csc(C(C)Nc2nc(C)nc3cc(OC)c(OC)cc23)c1	> 10 µM
CC1(C)CCC(CN2CCN(c3ccc(C(=O)NS(=O)(=O)c4ccc(NCC5CCOCC5)c([N+](=O)[O-])c4)c(Oc4cnc5[nH]ccc5c4)c3)CC2)=C(c2ccc(Cl)cc2)C1 + CC1OCC2(CCN(c3cnc(Sc4ccnc(N)c4Cl)c(N)n3)CC2)C1N	< 0.0316 µM
CC(=O)OC12COC1CC(O)C1(C)C(=O)C(O)C3=C(C)C(OC(=O)C(O)C(NC(=O)OC(C)(C)C)c4ccccc4)CC(O)(C(OC(=O)c4ccccc4)C21)C3(C)C (stereo not given) + COc1cc2nc(C)nc(NC(C)c3cc(N)cc(C(F)(F)F)c3)c2cc1OC1CCOC1	< 0.01 µM
COc1cc(Nc2ncc3c(n2)-c2ccc(Cl)cc2C(c2c(F)cccc2OC)=NC3)ccc1C(=O)O + COc1cc2nc(C)nc(NC(C)c3cc(N)cc(C(F)(F)F)c3)c2cc1OC1CCOC1	< 0.0316 µM
CN(C)C/C=C/C(=O)Nc1cc2c(Nc3ccc(F)c(Cl)c3)ncnc2cc1O[C@H]1CCOC1 + CNCc1ccccc1-c1csc(C(C)Nc2nc(C)nc3cc(OC)c(OC)cc23)c1	> 0.1 µM
CC(=O)OC12COC1CC(O)C1(C)C(=O)C(O)C3=C(C)C(OC(=O)C(O)C(NC(=O)OC(C)(C)C)c4ccccc4)CC(O)(C(OC(=O)c4ccccc4)C21)C3(C)C (stereo not given) + CC1OCC2(CCN(c3cnc(Sc4ccnc(N)c4Cl)c(N)n3)CC2)C1N	< 0.01 µM
Cn1ncnc1[C@H]1c2n[nH]c(=O)c3cc(F)cc(c23)N[C@@H]1c1ccc(F)cc1 + C=CC(=O)N1CCN(c2nc(OCC3CCCN3C)nc3c2CCN(c2cccc4cccc(C)c24)C3)CC1CC#N	> 0.1 µM
CC1OCC2(CCN(c3cnc(Sc4ccnc(N)c4Cl)c(N)n3)CC2)C1N (stereo not given) + C=CC(=O)N1CCN(c2nc(OCC3CCCN3C)nc3c2CCN(c2cccc4cccc(C)c24)C3)CC1CC#N	< 0.0316 µM
CCNC(=O)CC1N=C(c2ccc(Cl)cc2)c2cc(OC)ccc2-n2c(C)nnc21 (stereo not given) + C=CC(=O)N1CCN(c2nc(=O)n(-c3c(C)ccnc3C(C)C)c3nc(-c4c(O)cccc4F)c(F)cc23)C(C)C1	0.0518 µM
CC(=O)Nc1cccc(-n2c(=O)n(C3CC3)c(=O)c3c(Nc4ccc(I)cc4F)n(C)c(=O)c(C)c32)c1 + C=CC(=O)N1CCN(c2nc(OCC3CCCN3C)nc3c2CCN(c2cccc4cccc(C)c24)C3)CC1CC#N	0.000361 µM
CC(C)NCC(C(=O)N1CCN(c2ncnc3c2C(C)CC3O)CC1)c1ccc(Cl)cc1 (stereo not given) + CNCc1ccccc1-c1csc(C(C)Nc2nc(C)nc3cc(OC)c(OC)cc23)c1	1.33 µM
CC(C)NCC(C(=O)N1CCN(c2ncnc3c2C(C)CC3O)CC1)c1ccc(Cl)cc1 (stereo not given) + CC1OCC2(CCN(c3cnc(Sc4ccnc(N)c4Cl)c(N)n3)CC2)C1N	< 0.0316 µM
COC(=O)c1ccc2c(C(=Nc3ccc(N(C)C(=O)CN4CCN(C)CC4)cc3)c3ccccc3)c(O)[nH]c2c1 + CC1OCC2(CCN(c3cnc(Sc4ccnc(N)c4Cl)c(N)n3)CC2)C1N	< 0.0316 µM
